Target: T1, murine IL-11 (mouse, UniProt P47873 22-199)
T1 sequence: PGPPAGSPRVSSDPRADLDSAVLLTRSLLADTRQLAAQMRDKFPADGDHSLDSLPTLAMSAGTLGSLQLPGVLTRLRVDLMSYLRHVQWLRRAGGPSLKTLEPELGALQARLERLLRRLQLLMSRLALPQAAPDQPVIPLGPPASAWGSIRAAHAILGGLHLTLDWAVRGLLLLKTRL
Assay: cell-based or functional assay
readout kind: RGA Efficacy (%)
Use % as the unit, but write only the number.

{"binder": "TPP-26295 (antibody, V domains shown) VH: EVQLLESGGGLVQPGGSLRLSCAASGFTFSSYGMHWVRQAPGKGLEWVSVISYDGSYKYYADSVKGRFTISRDNSKNTLYLQMNSLRAEDTAVYYCAAGVPDYWGQGTLVTVSS VL: QSVLTQPPSASGTPGQRVTISCTGSSSNIGAGYDVHWYQQLPGTAPKLLIYSNNERPSGVPDRFSGSKSGTSASLAISGLRSEDEADYYCAAWDHSLNGPVFGGGTKLTVL", "unit tag": "%", "RGA Efficacy (%)": 93.9}
{"binder": "TPP-26312 (antibody, V domains shown) VH: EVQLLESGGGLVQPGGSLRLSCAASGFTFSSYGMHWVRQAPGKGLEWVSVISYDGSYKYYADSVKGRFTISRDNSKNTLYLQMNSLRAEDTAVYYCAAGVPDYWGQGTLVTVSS VL: QSVLTQPPSASGTPGQRVTISCTGSSSNIGAGLDVHWYQQLPGTAPKLLIYSNNERPSGVPDRFSGSKSGTSASLAISGLRSEDEADYYCAAWDDSLNGPVFGGGTKLTVL", "unit tag": "%", "RGA Efficacy (%)": 87.3}
{"binder": "TPP-26291 (antibody, V domains shown) VH: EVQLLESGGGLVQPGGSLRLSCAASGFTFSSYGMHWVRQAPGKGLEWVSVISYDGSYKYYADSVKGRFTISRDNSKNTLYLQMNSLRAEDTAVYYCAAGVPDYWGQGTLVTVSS VL: QSVLTQPPSASGTPGQRVTISCTGSSSNIGAGYDVHWYQQLPGTAPKLLIYSNNERPSGVPDRFSGSKSGTSASLAISGLRSEDEADYYCAAWDPSLNGPVFGGGTKLTVL", "unit tag": "%", "RGA Efficacy (%)": 92.1}
{"binder": "TPP-26292 (antibody, V domains shown) VH: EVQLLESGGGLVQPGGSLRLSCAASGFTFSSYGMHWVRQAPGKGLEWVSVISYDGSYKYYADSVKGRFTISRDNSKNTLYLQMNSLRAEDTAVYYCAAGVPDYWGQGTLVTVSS VL: QSVLTQPPSASGTPGQRVTISCTGSSSNIGAGYDVHWYQQLPGTAPKLLIYSNNERPSGVPDRFSGSKSGTSASLAISGLRSEDEADYYCAAWDESLNGPVFGGGTKLTVL", "unit tag": "%", "RGA Efficacy (%)": 94.7}

Kindly review the next binder as well.
What measured RGA Efficacy (%) goes with TPP-26315 (antibody, V domains shown) VH: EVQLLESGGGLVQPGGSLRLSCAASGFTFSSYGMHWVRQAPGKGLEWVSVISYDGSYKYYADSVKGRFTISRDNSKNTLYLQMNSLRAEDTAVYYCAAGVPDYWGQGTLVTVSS VL: QSVLTQPPSASGTPGQRVTISCTGSSSNIGAHYDVHWYQQLPGTAPKLLIYSNNERPSGVPDRFSGSKSGTSASLAISGLRSEDEADYYCAAWDDSLNGPVFGGGTKLTVL ? 91.5
